experiment: Acute toxicity, single intraperitoneal injection, probit analysis (LD50); type: in vivo, Mäusen; details: mice, i.p.
Each entry below carries its reported LD50.
Measured attribute: LD50 (mg/kg)

>  <Compound>
Cc1nc2c(c(N)c1C)CCC2 [Verbindung 16]

>  <Measured attribute>
LD50

>  <Endpoint value>
21

$$$$
>  <Compound>
CCc1nc2c(c(N)c1C)CCC2 [Verbindung 30]

>  <Measured attribute>
LD50

>  <Endpoint value>
40

$$$$
>  <Compound>
Cc1nc2c(c(N)c1C)CCC2 [Verbindung 2]

>  <Measured attribute>
LD50

>  <Endpoint value>
15

$$$$
>  <Compound>
Cc1nc2c(c(N)c1C)CCC2 [Verbindung 1]

>  <Measured attribute>
LD50

>  <Endpoint value>
15

$$$$
>  <Compound>
Cc1nc2c(c(N)c1C)CCC2 [Verbindung 9]

>  <Measured attribute>
LD50

>  <Endpoint value>
15

$$$$
>  <Compound>
Cc1nc2c(c(N)c1C)CCC2 [Verbindung 4]

>  <Measured attribute>
LD50

>  <Endpoint value>
15

$$$$
>  <Compound>
Cc1nc2c(c(N)c1C)CCC2 [Verbindung 14]

>  <Measured attribute>
LD50

>  <Endpoint value>
17

$$$$
>  <Compound>
Cc1nc2c(c(N)c1C)CCC2 [Verbindung 15]

>  <Measured attribute>
LD50

>  <Endpoint value>
16

$$$$
>  <Compound>
Cc1nc2c(c(N)c1C)CCC2 [Verbindung 17]

>  <Measured attribute>
LD50

>  <Endpoint value>
24

$$$$
>  <Compound>
Cc1nc2c(c(N)c1C)CCC2 [Verbindung 3]

>  <Measured attribute>
LD50

>  <Endpoint value>
17

$$$$
>  <Compound>
CCc1c(C)nc2c(c1N)CCC2

>  <Measured attribute>
LD50

>  <Endpoint value>
32

$$$$
>  <Compound>
Cc1nc2c(c(N)c1-c1ccccc1)CCC2

>  <Measured attribute>
LD50

>  <Endpoint value>
25

$$$$

* * *

assay: Side effects and CNS/behaviour: tremor (TD50), sedative and m-cholinomimetic effects; assay type: in vivo; settings: toxic dose causing tremor in 50 % of the animals

>  <Compound>
CCc1nc2c(c(N)c1C)CCC2 [Verbindung 30]

>  <Unit of measure>
mg/kg

>  <TD50 (Tremor)>
22

$$$$
>  <Compound>
Cc1nc2c(c(N)c1C)CCC2 [Verbindung 13]

>  <Unit of measure>
mg/kg

>  <TD50 (Tremor)>
8

$$$$
>  <Compound>
Cc1nc2c(c(N)c1-c1ccccc1)CCC2 [Verbindung 33]

>  <Unit of measure>
mg/kg

>  <TD50 (Tremor)>
15

$$$$
>  <Compound>
Cc1nc2c(c(N)c1C)CCC2 [Verbindung 14]

>  <Unit of measure>
mg/kg

>  <TD50 (Tremor)>
9

$$$$
>  <Compound>
Cc1nc2c(c(N)c1C)CCC2 [Verbindung 7]

>  <Unit of measure>
mg/kg

>  <TD50 (Tremor)>
9

$$$$

* * *

Each entry below carries its reported pKi.
target: Acetylcholinesterase menschlicher Erythrozyten (Homo sapiens, UniProt P22303); construct: Acetylcholin-esteraseinhi-bierung bei menschlichen Erythrozyten; from tissue; host or cells: human erythrocytes; test: Acetylcholinesterase inhibition, spectrophotometric; assay type: biochemical; details: Acetylcholinesteraseinhibierung bei menschlichen Erythrozyten IK, (Mol), human erythrocyte enzyme
Sequence (P22303 other isoform, or with tags, fused parts or gaps): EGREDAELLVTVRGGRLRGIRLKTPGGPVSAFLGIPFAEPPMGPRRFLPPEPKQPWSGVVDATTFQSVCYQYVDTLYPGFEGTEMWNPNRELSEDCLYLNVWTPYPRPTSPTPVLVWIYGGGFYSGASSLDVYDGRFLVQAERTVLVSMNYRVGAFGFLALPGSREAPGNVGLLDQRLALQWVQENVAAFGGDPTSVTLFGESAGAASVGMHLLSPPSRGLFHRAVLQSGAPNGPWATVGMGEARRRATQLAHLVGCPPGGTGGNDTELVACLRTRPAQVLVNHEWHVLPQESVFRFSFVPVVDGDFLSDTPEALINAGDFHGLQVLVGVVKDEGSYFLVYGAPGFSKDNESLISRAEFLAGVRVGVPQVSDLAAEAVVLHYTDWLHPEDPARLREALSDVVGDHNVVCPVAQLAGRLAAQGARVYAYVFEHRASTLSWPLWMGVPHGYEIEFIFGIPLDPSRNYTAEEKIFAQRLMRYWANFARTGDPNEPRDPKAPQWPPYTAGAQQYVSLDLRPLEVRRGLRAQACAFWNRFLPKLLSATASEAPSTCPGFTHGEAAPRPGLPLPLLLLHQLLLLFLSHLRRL
pKi: −log10 of the molar value.
Measured attribute: pKi

>  <Molecule>
Cc1nc2c(c(N)c1-c1ccccc1)CCC2

>  <Endpoint value>
4.32

$$$$
>  <Molecule>
CCc1c(C)nc2c(c1N)CCC2

>  <Endpoint value>
5.15

$$$$
>  <Molecule>
Cc1nc2c(c(N)c1C)CCC2 [Verbindung 1]

>  <Endpoint value>
5.97

$$$$
>  <Molecule>
Cc1nc2c(c(N)c1C)CCC2 [Verbindung 15]

>  <Endpoint value>
6.19

$$$$
>  <Molecule>
Cc1nc2c(c(N)c1C)CCC2 [Verbindung 17]

>  <Endpoint value>
6.41

$$$$
>  <Molecule>
Cc1nc2c(c(N)c1C)CCC2 [Verbindung 10]

>  <Endpoint value>
6.91

$$$$
>  <Molecule>
Cc1nc2c(c(N)c1C)CCC2 [Verbindung 13]

>  <Endpoint value>
6.35

$$$$
>  <Molecule>
Cc1nc2c(c(N)c1C)CCC2 [Verbindung 6]

>  <Endpoint value>
6.40

$$$$
>  <Molecule>
Cc1nc2c(c(N)c1C)CCC2 [Verbindung 5]

>  <Endpoint value>
6.18

$$$$
>  <Molecule>
Nc1c2c(nc3c1CCC3)CCC2 [Verbindung 36]

>  <Endpoint value>
6.96

$$$$
>  <Molecule>
Cc1nc2c(c(N)c1C)CCC2 [Verbindung 4]

>  <Endpoint value>
6.62

$$$$
>  <Molecule>
CCNc1c(C)c(C)nc2c1CCC2

>  <Endpoint value>
5.15

$$$$
>  <Molecule>
CCCc1c(C)nc2c(c1N)CCC2

>  <Endpoint value>
5.12

$$$$
>  <Molecule>
Cc1nc2c(c(N)c1C)CCC2 [Verbindung 18]

>  <Endpoint value>
6.84

$$$$
>  <Molecule>
Cc1nc2c(c(N)c1C)CCC2 [Verbindung 7]

>  <Endpoint value>
6.44

$$$$
>  <Molecule>
Cc1nc2c(c(N)c1C)CCC2 [Verbindung 16]

>  <Endpoint value>
6.24

$$$$
>  <Molecule>
CCc1nc2c(c(N)c1C)CCC2 [Verbindung 30]

>  <Endpoint value>
5.29

$$$$
>  <Molecule>
Cc1nc2c(c(N)c1C)CCC2 [Verbindung 14]

>  <Endpoint value>
6.46

$$$$
>  <Molecule>
Cc1nc2c(c(N)c1C)CCC2 [Verbindung 2]

>  <Endpoint value>
7.32

$$$$
>  <Molecule>
Nc1c2c(nc3c1CCC3)CCC2 [Verbindung 37]

>  <Endpoint value>
6.82

$$$$
>  <Molecule>
CCc1nc2c(c(N)c1C)CCC2 [Verbindung 27]

>  <Endpoint value>
5.42

$$$$
>  <Molecule>
Cc1nc2c(c(N)c1C)CCC2 [Verbindung 9]

>  <Endpoint value>
6.60

$$$$
>  <Molecule>
Nc1c2c(nc3c1CCC3)CCCCC2 [Verbindung 39]

>  <Endpoint value>
6.25

$$$$
>  <Molecule>
Cc1nc2c(c(N)c1C)CCC2 [Verbindung 3]

>  <Endpoint value>
6.74

$$$$
>  <Molecule>
CCc1nc2c(c(N)c1C)CCC2 [Verbindung 29]

>  <Endpoint value>
5.22

$$$$
>  <Molecule>
CNc1c(C)c(C)nc2c1CCC2

>  <Endpoint value>
5.17

$$$$
>  <Molecule>
CCc1nc2c(c(N)c1C)CCC2 [Verbindung 28]

>  <Endpoint value>
5.21

$$$$
>  <Molecule>
Nc1c2c(nc3c1CCC3)CCCCC2 [Verbindung 38]

>  <Endpoint value>
6.32

$$$$

* * *

assay: Side effects and CNS/behaviour: tremor (TD50), sedative and m-cholinomimetic effects; format: in vivo; conditions: ED50 = dose blocking the effect of Skopolamin in 50 % of the animals (passive avoidance, mice)
Each entry below carries its reported Verhältnis TD50 zu ED50.
Measured attribute: Verhältnis TD50 zu ED50

>  <Compound>
Cc1nc2c(c(N)c1C)CCC2 [Verbindung 1]

>  <Endpoint value>
15

$$$$
>  <Compound>
CCc1nc2c(c(N)c1C)CCC2 [Verbindung 28]

>  <Endpoint value>
11

$$$$
>  <Compound>
CCc1nc2c(c(N)c1C)CCC2 [Verbindung 29]

>  <Endpoint value>
12

$$$$
>  <Compound>
Cc1nc2c(c(N)c1C)CCC2 [Verbindung 3]

>  <Endpoint value>
20

$$$$
>  <Compound>
Cc1nc2c(c(N)c1C)CCC2 [Verbindung 18]

>  <Endpoint value>
6

$$$$
>  <Compound>
Cc1nc2c(c(N)c1C)CCC2 [Verbindung 4]

>  <Endpoint value>
11

$$$$
>  <Compound>
CCc1c(C)nc2c(c1N)CCC2

>  <Endpoint value>
4

$$$$
>  <Compound>
Cc1nc2c(c(N)c1C)CCC2 [Verbindung 7]

>  <Endpoint value>
9

$$$$
>  <Compound>
Cc1nc2c(c(N)c1C)CCC2 [Verbindung 9]

>  <Endpoint value>
7

$$$$

* * *

Each entry below carries its reported LD50.
assay: Acute toxicity, single intraperitoneal injection, probit analysis (LD50); type: in vivo, Mäusen; conditions: mouse, in vivo, ip, mice, i.p., read-out: LD50
Measured attribute: LD50 (mg/kg)

>  <Compound>
Cc1nc2c(c(N)c1-c1ccccc1)CCC2

>  <Endpoint value>
18

$$$$
>  <Compound>
Nc1c2c(nc3ccccc13)CCCC2 [Verbindung 41, 2,3,4,5-Tetrahydro-9-amino-acridin, reference compound]

>  <Endpoint value>
30

$$$$
>  <Compound>
Nc1c2c(nc3c1CCC3)CCC2

>  <Endpoint value>
36

$$$$
>  <Compound>
CCc1nc2c(c(N)c1C)CCC2

>  <Endpoint value>
30

$$$$
>  <Compound>
CNc1c(C)c(C)nc2c1CCC2

>  <Endpoint value>
16

$$$$
>  <Compound>
CCCc1c(C)nc2c(c1N)CCC2

>  <Endpoint value>
30

$$$$
>  <Compound>
Nc1c2c(nc3c1CCC3)CCCCC2

>  <Endpoint value>
49

$$$$
>  <Compound>
Nc1c2c(nc3c1CCC3)CCCC2 [Verbindung 40, reference compound]

>  <Endpoint value>
44

$$$$
>  <Compound>
CCc1c(C)nc2c(c1N)CCC2

>  <Endpoint value>
30

$$$$
>  <Compound>
CCNc1c(C)c(C)nc2c1CCC2

>  <Endpoint value>
18

$$$$
